Give concentration for every item shown.
# Tested on: Brain
# Assay Explanation: Drug level Sprague-Dawley rat brain at 10 mg/kg, po
# Format: ADME, organism-based
# Set-up: dose 10 mg/kg, route oral
# Assay Conditions: in vivo, read-out: Drug uptake
Give bare numbers, in nM.

Some compounds with known concentration results, for comparison:
Value of measured concentration for the entry N#CC1(c2ccccc2)CCN(Cc2cc(C(=O)O)c(=O)n3ccccc23)CC1 : 127

Value of measured concentration for the entry Cc1ccnc(C2(C#N)CCN(Cc3cc(C(=O)O)c(=O)n4ccccc34)CC2)c1 : 233

Value of measured concentration for the entry Cc1ccccc1C1(C#N)CCN(Cc2cc(C(=O)O)c(=O)n3ccccc23)CC1 : 114

More entries:
Value of measured concentration for the entry N#CC1(c2ccccn2)CCN(Cc2cc(C(=O)O)c(=O)n3ccccc23)CC1 : 306

----------
Give IP for every item shown.
# Target Entity: Muscarinic acetylcholine receptor M1 (Homo sapiens) (UniProt P11229)
# Sequence (P11229 whole entry): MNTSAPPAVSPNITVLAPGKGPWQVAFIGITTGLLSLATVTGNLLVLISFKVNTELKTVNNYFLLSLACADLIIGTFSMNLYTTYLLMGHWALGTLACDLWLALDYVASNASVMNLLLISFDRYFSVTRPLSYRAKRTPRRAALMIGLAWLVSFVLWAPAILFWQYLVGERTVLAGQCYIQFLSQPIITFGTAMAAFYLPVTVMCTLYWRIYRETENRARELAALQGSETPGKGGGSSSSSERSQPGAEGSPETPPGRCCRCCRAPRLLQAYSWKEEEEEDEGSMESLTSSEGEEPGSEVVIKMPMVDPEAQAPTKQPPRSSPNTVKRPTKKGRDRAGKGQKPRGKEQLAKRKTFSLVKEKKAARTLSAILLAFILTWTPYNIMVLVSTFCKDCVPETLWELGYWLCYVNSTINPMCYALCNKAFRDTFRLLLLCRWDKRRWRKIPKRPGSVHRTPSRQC
# Assay Explanation: Agonist activity at human muscarinic M1 receptor expressed in CHONFAT cells assessed as enhancement of acetylcholine-induced calcium mobilization preincubated for 4 mins measured after 1 hr by FLIPR assay
# Type: functional, cell-based
Record the result as a number with its unit.

Observed IP on Muscarinic acetylcholine receptor M1 (Homo sapiens) (UniProt P11229), entry COc1ccnc(C2(C#N)CCN(Cc3cc(C(=O)O)c(=O)n4ccccc34)CC2)c1 , equals 224 nM

Observed IP on Muscarinic acetylcholine receptor M1 (Homo sapiens) (UniProt P11229), entry N#CC1CCN(Cc2cc(C(=O)O)c(=O)n3ccccc23)CC1 , equals 7650 nM

Observed IP on Muscarinic acetylcholine receptor M1 (Homo sapiens) (UniProt P11229), entry N#CC1(c2cccnc2)CCN(Cc2cc(C(=O)O)c(=O)n3ccccc23)CC1 , equals 363 nM

Observed IP on Muscarinic acetylcholine receptor M1 (Homo sapiens) (UniProt P11229), entry N#CC1(c2ccccn2)CCN(Cc2cc(C(=O)O)c(=O)n3ccccc23)CC1 , equals 135 nM

Observed IP on Muscarinic acetylcholine receptor M1 (Homo sapiens) (UniProt P11229), entry N#CC1(c2cc(C(F)(F)F)ccn2)CCN(Cc2cc(C(=O)O)c(=O)n3ccccc23)CC1 , equals 2720 nM

// batch mode: one IP value per listed entry
1. Cc1ccc(C2(C#N)CCN(Cc3cc(C(=O)O)c(=O)n4ccccc34)CC2)nc1
2. CSc1cccc(C2(C#N)CCN(Cc3cc(C(=O)O)c(=O)n4ccccc34)CC2)n1
3. N#CC1(c2ccccc2)CCN(Cc2cc(C(=O)O)c(=O)n3ccccc23)CC1

["204 nM", "100 nM", "151 nM"]

----------
# Assay Explanation: Lipophilicity, log P of the compound
# Type: physicochemical
# Assay Conditions: octanol/water
Test Readout: logP
Numbers only.

Value of measured logP for the entry N#CC1(c2cccnc2)CCN(Cc2cc(C(=O)O)c(=O)n3ccccc23)CC1 : -0.4

Please turn your attention to the following entry.
Value of measured logP for the entry N#CC1(c2ccccn2)CCN(Cc2cc(C(=O)O)c(=O)n3ccccc23)CC1 : 0.15

----------
Give log10 concentration for every item shown.
# Tested on: Cerebrospinal fluid
# Assay Explanation: Drug level in Sprague-Dawley rat cerebrospinal fluid at 10 mg/kg, po
# Assay type: ADME, organism-based
# Parameters: dose 10 mg/kg, route oral
# Assay Conditions: in vivo, read-out: Drug uptake
For clarity, the numbers are log10 values of concentration expressed in nM.

Some compounds with known log10 concentration results, for comparison:
Value of measured log10 concentration for the entry N#CC1(c2ccccc2)CCN(Cc2cc(C(=O)O)c(=O)n3ccccc23)CC1 : 0.90

Value of measured log10 concentration for the entry Cc1ccccc1C1(C#N)CCN(Cc2cc(C(=O)O)c(=O)n3ccccc23)CC1 : 1.20

Value of measured log10 concentration for the entry Cc1ccnc(C2(C#N)CCN(Cc3cc(C(=O)O)c(=O)n4ccccc34)CC2)c1 : 2.26

// batch mode: one log10 concentration value per listed entry
1. N#CC1(c2ccccn2)CCN(Cc2cc(C(=O)O)c(=O)n3ccccc23)CC1
2. N#CC1(c2cccnc2)CCN(Cc2cc(C(=O)O)c(=O)n3ccccc23)CC1

[2.13, 1.60]
